Answer each item with its documented IC50.
Measured Target: Human NaV1.7 (Homo sapiens, UniProt Q15858)
Sequence (Q15858 whole entry): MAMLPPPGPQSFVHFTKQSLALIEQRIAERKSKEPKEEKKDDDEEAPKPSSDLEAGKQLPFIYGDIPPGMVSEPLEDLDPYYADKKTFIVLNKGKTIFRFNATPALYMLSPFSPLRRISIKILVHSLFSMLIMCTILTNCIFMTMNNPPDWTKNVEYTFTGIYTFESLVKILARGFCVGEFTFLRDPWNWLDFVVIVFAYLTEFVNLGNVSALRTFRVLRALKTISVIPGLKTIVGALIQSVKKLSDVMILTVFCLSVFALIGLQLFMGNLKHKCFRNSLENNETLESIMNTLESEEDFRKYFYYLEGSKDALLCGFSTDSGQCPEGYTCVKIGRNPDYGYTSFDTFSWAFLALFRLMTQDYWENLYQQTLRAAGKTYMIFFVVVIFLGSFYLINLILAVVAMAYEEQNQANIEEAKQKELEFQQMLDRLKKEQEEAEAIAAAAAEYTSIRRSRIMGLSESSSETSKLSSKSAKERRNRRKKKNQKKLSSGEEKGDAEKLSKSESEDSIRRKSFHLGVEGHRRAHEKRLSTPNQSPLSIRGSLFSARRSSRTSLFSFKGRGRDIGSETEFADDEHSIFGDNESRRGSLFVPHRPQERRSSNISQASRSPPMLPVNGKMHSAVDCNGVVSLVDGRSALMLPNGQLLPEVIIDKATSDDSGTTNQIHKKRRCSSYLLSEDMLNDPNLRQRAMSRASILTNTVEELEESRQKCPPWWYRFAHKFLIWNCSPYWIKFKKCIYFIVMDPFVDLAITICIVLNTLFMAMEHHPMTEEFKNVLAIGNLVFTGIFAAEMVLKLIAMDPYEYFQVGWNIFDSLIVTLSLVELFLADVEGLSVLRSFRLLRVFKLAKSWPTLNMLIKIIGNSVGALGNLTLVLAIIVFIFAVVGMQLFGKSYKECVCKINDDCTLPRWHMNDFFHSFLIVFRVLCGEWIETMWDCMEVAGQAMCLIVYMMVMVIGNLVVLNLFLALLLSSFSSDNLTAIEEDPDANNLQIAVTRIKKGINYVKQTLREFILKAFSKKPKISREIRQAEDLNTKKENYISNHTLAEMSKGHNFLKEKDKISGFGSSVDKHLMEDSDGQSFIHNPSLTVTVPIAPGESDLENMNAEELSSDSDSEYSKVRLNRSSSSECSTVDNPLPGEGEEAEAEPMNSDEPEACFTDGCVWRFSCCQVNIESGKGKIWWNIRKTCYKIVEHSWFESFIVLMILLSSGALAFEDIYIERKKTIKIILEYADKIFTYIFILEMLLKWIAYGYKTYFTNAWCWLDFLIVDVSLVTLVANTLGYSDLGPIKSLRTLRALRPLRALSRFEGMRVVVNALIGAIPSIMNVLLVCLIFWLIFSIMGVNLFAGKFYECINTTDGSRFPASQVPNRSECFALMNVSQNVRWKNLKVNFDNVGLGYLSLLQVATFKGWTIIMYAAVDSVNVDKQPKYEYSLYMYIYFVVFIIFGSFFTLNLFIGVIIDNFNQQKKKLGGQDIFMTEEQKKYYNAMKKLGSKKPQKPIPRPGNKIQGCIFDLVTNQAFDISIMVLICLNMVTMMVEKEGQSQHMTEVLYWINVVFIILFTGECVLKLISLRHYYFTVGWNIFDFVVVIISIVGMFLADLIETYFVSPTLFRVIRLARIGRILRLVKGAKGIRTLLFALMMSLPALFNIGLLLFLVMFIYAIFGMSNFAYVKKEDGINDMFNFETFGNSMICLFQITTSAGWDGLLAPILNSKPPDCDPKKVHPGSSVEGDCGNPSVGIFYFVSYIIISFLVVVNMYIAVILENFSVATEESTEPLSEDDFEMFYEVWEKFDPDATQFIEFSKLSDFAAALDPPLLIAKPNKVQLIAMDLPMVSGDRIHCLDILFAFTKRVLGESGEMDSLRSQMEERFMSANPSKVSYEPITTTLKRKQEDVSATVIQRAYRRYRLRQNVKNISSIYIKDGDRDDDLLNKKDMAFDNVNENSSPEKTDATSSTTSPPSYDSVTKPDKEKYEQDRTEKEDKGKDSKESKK
Method Notes: Ionworks Barracuda (IWB) automated patch clamp assay
Experimental Parameters: human NaV1.7 in HEK cells, population patch-clamp, state- and use-dependent voltage protocol; read-out: hNaV1.7 IWB-U IC50
Give bare numbers, in nM.

Please review the entries below; each comes with its answer.
- Compound: "COc1cc([C@@H]2C[C@H]2C(F)(F)F)ccc1-n1c(=O)ccc2cc(S(=O)(=O)Nc3ccon3)c(F)cc21 (atropisomer, axis not shown; (P)) [Example 47]"
  IC50 / nM: 12
- Compound: "COc1cc(C2(C(F)(F)F)CC2)c(F)cc1-n1c(=O)ccc2cc(S(=O)(=O)Nc3ccon3)ccc21 (single isomer, unassigned) [Example 22]"
  IC50 / nM: 14

Data request: Please list IC50 recorded for the compound COc1cc([C@@H]2C[C@H]2C(F)(F)F)c(F)cc1-n1c(=O)ccc2cc(S(=O)(=O)Nc3ccon3)ccc21 (atropisomer, axis not shown; (P)) [Example 5]
Data returned: 9

* * *

Measured Target: Human NaV1.7 (Homo sapiens, UniProt Q15858)
Method Notes: Ionworks Barracuda (IWB) automated patch clamp assay
Experimental Parameters: human NaV1.7 in HEK cells, population patch-clamp, state- and use-dependent voltage protocol; read-out: hNaV1.7 IWB-U IC50
Measured Attribute: pIC50
One number for each entry, as −log10 of the molar value.

Completed entries (count: 3):
- Compound: "COc1cc([C@@H]2CC2(F)F)c(F)cc1-n1c(=O)ccc2cc(S(=O)(=O)Nc3ccon3)ccc21 (atropisomer, axis not shown; (P))"
  pIC50: 7.23
- Compound: "COc1cc(C2(C(F)(F)F)CC2)c(F)cc1-n1c(=O)ccc2cc(S(=O)(=O)Nc3ncccn3)ccc21 (atropisomer, axis not shown; (P))"
  pIC50: 7.80
- Compound: "COc1cc([C@@H]2C[C@H]2C(F)(F)F)c(F)cc1-n1c(=O)ccc2cc(S(=O)(=O)Nc3ccon3)ccc21 (racemic) [Example 3]"
  pIC50: 7.64

Give one value of pIC50 per listed compound.
1. COc1cc([C@H]2C[C@@H]2C(F)(F)F)c(Cl)cc1-n1c(=O)ccc2cc(S(=O)(=O)Nc3ncccn3)ccc21 (atropisomer, axis not shown; (P))
2. COc1cc([C@@H]2C[C@H]2C(F)(F)F)c(Cl)cc1-n1c(=O)ccc2cc(S(=O)(=O)Nc3ncccn3)ccc21 (atropisomer, axis not shown; (P))

Data returned:
7.77
7.92

* * *

Test system: CYP3A4
Method Notes: Human CYP 3A4 induction assay (mRNA, cryopreserved human hepatocytes)
Format: in vitro ADME
Experimental Parameters: 10 uM test compound, 72 hours, percent of control (rifampin positive control)
Measured Attribute: CYP3A4 mRNA Induct Hu 10 uM POC
// return the numeric value with its unit appended

For orientation, consider the following solved cases.
- Molecule: "COc1cc([C@@H]2C[C@H]2C(F)(F)F)c(F)cc1-n1c(=O)ccc2cc(S(=O)(=O)Nc3nncs3)ccc21 (atropisomer, axis not shown; (P))"
  Recorded Value: "10.79%"
- Molecule: "COc1cc([C@@H]2C[C@H]2C(F)(F)F)c(F)cc1-n1c(=O)ccc2cc(S(=O)(=O)Nc3ccon3)c(F)cc21 (atropisomer, axis not shown; (P))"
  Recorded Value: "24.57%"
- Molecule: "COc1cc([C@H]2C[C@@H]2C(F)(F)F)ccc1-n1c(=O)ccc2cc(S(=O)(=O)Nc3ccon3)ccc21 (single isomer, unassigned)"
  Recorded Value: "38.35%"

Data request: Return value of CYP3A4 mRNA Induct Hu 10 uM POC for input COc1cc([C@@H]2C[C@H]2C(F)(F)F)ccc1-n1c(=O)ccc2cc(S(=O)(=O)Nc3ccon3)ccc21 (single isomer, unassigned) , no commentary.
Data returned: 29.06%
